From: PubChem BioAssay (NCI)

- method-description: NCI Yeast Anticancer Drug Screen. Data for the mec2-1 strain (AID 157)
- applied-conditions: S. cerevisiae mec2-1 strain, at 50.0 µM, hits give high values
This is part of a sample that, as a whole, favours compounds with a hit. Of some 79,000 tested, about 15% had one in any assay.
growth inhibition: recorded values
Kindly answer with a numeric value in %, unit omitted.

Use the examples below as a reference point.
compound	measurement-units	recorded-measurement
CCCCC1(CO)NC(=O)NC1=O (stereo not given)	%	-13.9
O=C(CCCCCC(=O)N1CC(CCl)c2ccc([N+](=O)[O-])cc21)N1CC(CCl)c2ccc([N+](=O)[O-])cc21 (stereo not given)	%	-39.8
O=C(O)CSc1ccccc1	%	18.4
O=C(O)CCC(=O)CCC(=O)c1ccc(O)c2ncccc12	%	6.2
Cn1cnc2ncnc(Oc3ccc(Cl)cc3)c21	%	-10.3

Entry COc1ccc(C=Nc2ccc(Cl)cc2)cc1 — recorded growth inhibition = -25.2

growth inhibition for Cc1ccc(O)c(C(=O)C[n+]2ccccc2)c1 is -9.65
